- tested on: human RORγt LBD (Homo sapiens (Human), UniProt P51449)
- Sequence (P51449 258-518): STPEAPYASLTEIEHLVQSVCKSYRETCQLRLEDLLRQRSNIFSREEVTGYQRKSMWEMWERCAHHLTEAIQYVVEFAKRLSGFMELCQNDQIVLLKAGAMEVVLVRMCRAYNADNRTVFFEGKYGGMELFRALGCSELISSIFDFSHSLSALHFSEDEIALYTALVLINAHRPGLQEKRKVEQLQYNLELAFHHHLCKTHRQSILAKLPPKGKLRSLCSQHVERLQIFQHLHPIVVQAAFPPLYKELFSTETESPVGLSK
- assay text: RORγt reporter assay (GAL4-RORγt LBD luciferase in HEK293T cells)
- Type: cell-based
- run conditions: HEK-293T, read-out: RORγt reporter Assay, % inhibition @ 6 μM, HEK293T cells, 6 μM
result type: inhibition at 6 µM (%)
State just the number; it will be interpreted in %.

[
  {
    "compound": "Cn1cncc1C(O)(c1ccc(C(F)(F)F)nc1)c1ccc2nc(N3CCC3)c(Cc3ccc(C(F)(F)F)cc3)c(Cl)c2c1 (racemic) [Example 92A]",
    "inhibition at 6 µM (%)": 100
  },
  {
    "compound": "CCc1nc2ccc(C(O)(c3cnnn3C)C3CN(S(C)(=O)=O)C3)cc2c(Cl)c1Cc1ccc(C(F)(F)F)cc1 (single isomer, unassigned) [Example 91B]",
    "inhibition at 6 µM (%)": 97
  },
  {
    "compound": "Cc1cc(C(O)(c2ccc(Cl)cc2)c2cncn2C)cc2c(Cl)c(Cc3ccc(-n4cccn4)cc3)c(Cl)nc12 (stereo not drawn)",
    "inhibition at 6 µM (%)": 97
  }
]

Let me check: Cn1cncc1C(O)(c1ccc(C(F)(F)F)nc1)c1ccc2nc(C#N)c(Cc3ccc(-n4cccn4)cc3)c(C#N)c2c1 (stereo not drawn) [Example 72B] , system human RORγt LBD (Homo sapiens (Human), UniProt P51449), measured inhibition at 6 µM is 99

Let me check: OC(c1cccnc1)(c1cccc(F)c1)c1ccc2nc(Cl)c(Cc3ccc(-n4cccn4)cc3)c(Cl)c2c1 (stereo not drawn) , system human RORγt LBD (Homo sapiens (Human), UniProt P51449), measured inhibition at 6 µM is 100

Let me check: COc1nc2ccc(C(O)(c3ccc(C#N)cc3)c3cncn3C)cc2c(C#N)c1Cc1ccc(C(F)(F)F)cc1 (stereo not drawn) [Example 96A] , system human RORγt LBD (Homo sapiens (Human), UniProt P51449), measured inhibition at 6 µM is 99
